Measured cell viability of individual entries
system: P12-Ichikawa; experiment: cell viability relative to DMSO control; higher = less cytotoxic; details: RPMI 5 mM glucose + 10% dialyzed FBS; 48 h; 0.19 µM
Recorded Endpoint: cell viability (%)

Compound	Reported Result
C[C@H]1CCC/C=C/C2C[C@H](O)C[C@H]2[C@H](O)/C=C/C(=O)O1 (some centres not stated)	12.8
CC1(C)CC(=O)c2c(C(F)(F)F)nn(-c3ccc(C(N)=O)c(NC4CCC(OC(=O)CN)CC4)c3)c2C1 (configuration not stated)	82.4
CN(C)CCC=C1C2=C(C=CC=C2)\C=C/C3=C1C=CC=C3	107
COc1cc2ncnc(Nc3ccc(F)c(Cl)c3)c2cc1OCCCN1CCOCC1	109
CCC1=C(C)CN(C(=O)NCCc2ccc(S(=O)(=O)NC(=O)N[C@H]3CC[C@H](C)CC3)cc2)C1=O	104
CN[C@@H](C)C(=O)N[C@H]1CCCC[C@H]2CC[C@@H](C(=O)N[C@@H](c3ccccc3)c3cn(CCCCc4ccc(CCCCn5cc([C@@H](NC(=O)[C@@H]6CC[C@@H]7CCCC[C@H](NC(=O)[C@H](C)NC)C(=O)N76)c6ccccc6)nn5)cc4)nn3)N2C1=O	101
CC1=C(/C=C/C(C)=C/C=C/C(C)=C/C(=O)Nc2ccc(O)cc2)C(C)(C)CCC1	81.5
CCOc1cc2c(c(F)c1OCC)C(=N)N(CC(=O)c1cc(N3CCOCC3)c(OC)c(C(C)(C)C)c1)C2	117
NC/1=N/C(=O)N(/C=C1)[C@H]2CC[C@@H](CO)O2	90.4
CN(C)c1ccc(C(=O)NCCCCCCC(=O)NO)cc1	121
Cn1cc(-c2ccc3ncc(Cc4ccc5ncccc5c4)n3n2)cn1	104
COc1cc(N2CCC(N3CCN(C)CC3)CC2)ccc1Nc1ncnc(Nc2ccccc2[S+](=O)([O-])C(C)C)n1	125
CC1=C(C)C2=C(S1)[N]3C(=NN=C3[C@H](CC(=O)OC(C)(C)C)/N=C2/C4=CC=C(Cl)C=C4)C	78.9
c1cc(OCCN2CCCCC2)cc(-c2n[nH]c3ccc(-c4nc[nH]n4)cc23)c1	116
Cc1ccc(F)c(NC(=O)Nc2ccc(-c3cccc4[nH]nc(N)c34)cc2)c1	127
CN1[C@@H]2CC(O)C[C@H]1[C@@H]1O[C@@H]12 (some centres not stated)	120
CO[C@@H]1[C@H](N(C)C(=O)c2ccccc2)C[C@H]2O[C@]1(C)n1c3ccccc3c3c4c(c5c6ccccc6n2c5c31)C(=O)NC4	140
